SYSTEM_UNDER_TEST: T1, macaca fascicularis (mf) PRLR.mmh (soluble monomeric monkey PRLR) (Macaca fascicularis)
T1 construct: called soluble monomeric PRLR protein
T1 chain: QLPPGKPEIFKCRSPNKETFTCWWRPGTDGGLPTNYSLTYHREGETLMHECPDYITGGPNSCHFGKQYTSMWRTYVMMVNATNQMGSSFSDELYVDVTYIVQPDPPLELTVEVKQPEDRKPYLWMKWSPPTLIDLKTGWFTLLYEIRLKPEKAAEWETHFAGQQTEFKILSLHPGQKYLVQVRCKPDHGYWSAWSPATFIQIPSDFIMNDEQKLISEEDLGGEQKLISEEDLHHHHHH
EXPERIMENT_SUMMARY: SPR Biacore, 25 C, mAb capture
Entries and their Kd values follow.
The answer is to be given in nM; state only the numeric part.

Answered cases to consult:
>  <BINDER>
H1H6975N (antibody, human IgG1, V domains shown, Tested with human IgG1 Fc (H1H); also called H2M6975N) VH: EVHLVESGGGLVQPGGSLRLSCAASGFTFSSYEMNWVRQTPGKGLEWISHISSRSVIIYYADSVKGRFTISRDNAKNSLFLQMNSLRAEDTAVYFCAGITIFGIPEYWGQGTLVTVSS VL: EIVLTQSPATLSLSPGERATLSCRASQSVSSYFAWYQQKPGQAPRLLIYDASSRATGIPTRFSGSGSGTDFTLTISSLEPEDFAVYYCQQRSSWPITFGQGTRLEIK

>  <MEASURE>
Kd

>  <VALUE_MEASURED>
1.14

$$$$
>  <BINDER>
H1H6781P (antibody, human IgG1, V domains shown, Human IgG1 Fc (H1H)) VH: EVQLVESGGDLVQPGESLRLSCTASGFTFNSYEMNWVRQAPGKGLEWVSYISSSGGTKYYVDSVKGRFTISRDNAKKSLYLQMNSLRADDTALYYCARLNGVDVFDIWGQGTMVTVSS VL: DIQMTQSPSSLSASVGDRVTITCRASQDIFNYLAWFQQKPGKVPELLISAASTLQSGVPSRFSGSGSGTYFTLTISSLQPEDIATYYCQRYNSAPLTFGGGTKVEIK

>  <MEASURE>
Kd

>  <VALUE_MEASURED>
0.986

$$$$

We now examine a further binder.
Input: Looking for the measured Kd of H1H6797P (antibody, human IgG1, V domains shown, Human IgG1 Fc (H1H)) VH: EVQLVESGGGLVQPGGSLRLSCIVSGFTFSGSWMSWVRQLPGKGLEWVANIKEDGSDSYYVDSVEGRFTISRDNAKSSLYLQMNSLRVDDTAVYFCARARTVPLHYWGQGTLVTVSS VL: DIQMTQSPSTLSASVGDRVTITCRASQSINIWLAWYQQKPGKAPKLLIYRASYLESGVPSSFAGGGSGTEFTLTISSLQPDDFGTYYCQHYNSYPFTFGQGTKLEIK , can you help?
Output: 3.12
